Tested on: MDA-N
test name: NCI tumour cell line growth inhibition, 48 h
Catalogue of compounds with associated TGI
Field format: number, assumed µM, no unit text.

Reference set (5 entries):
O=C(CN1CCCC1)Nc1ccc2c(c1)C1Oc3ccccc3CC1CO2 (centres undefined) ... 88.2
Cc1c(-c2ccccc2)oc(=O)c2ccccc12 ... 59.3
CCN(CCCl)c1cc(CN(C)C)cc(NC(=O)c2ccc(C(=O)Nc3cccc(N(CCCl)NN)c3)cc2)c1 ... 0.169
COc1ccccc1-c1cc(=O)c2cccnc2[nH]1 ... 56.7
COc1ccc2c3c(c4cc(OC)c(OC)cc4c2c1)CN1CCC[C@H]1[C@@H]3O ... 0.706

Below: the item to evaluate.
Query block: For the compound `O=c1c2ccccc2n2nnc3ccc(NCCNCCO)c1c32` , what TGI is on record?
Result block: 10.3

* * *

Catalogue of compounds with associated TGI
System: DU-145 prostate
test name: NCI tumour cell line growth inhibition, 48 h

Reference set (4 entries):
COc1ccc([C@H]2c3[nH]c4ccccc4c3C[C@H]3C(=O)N(CCCCCCC(=O)NO)CC(=O)N23)cc1 ... > 33.3 µM
CSC1=C(C)C(/C=N/Nc2ccc([N+](=O)[O-])cc2)=C(C)N(c2ccccc2)S1(=O)=O ... > 100 µM
O=C(CCCCCCCCC(=O)N1C(=O)CC(=O)N(c2ccc(Cl)cc2)C1=S)N1C(=O)CC(=O)N(c2ccc(Cl)cc2)C1=S ... > 100 µM
CCn1c(-c2cc3ccccc3cc2OC(C)=O)n[nH]c1=S ... 81.1 µM

Below: the item to evaluate.
Query block: For the compound `Oc1ccccc1/C=N/c1nc(-c2ccccc2)cs1` , what TGI is on record?
Result block: > 100 µM

* * *

Test system: SF-268 CNS
test name: NCI tumour cell line growth inhibition, 48 h
measure name: TGI

Reference set (5 entries):
CCOC(=O)CCC(C(=O)OCC)n1nnc2cc(Nc3c(C)[n+]([O-])c4cc(Cl)ccc4[n+]3[O-])ccc21 (centres undefined) ... > 100 µM
COc1cc2c(cc1OCCN1CCN(CCOc3cc4c(cc3OC)C(=O)N3CCC[C@H]3C=N4)CC1)N=C[C@@H]1CCCN1C2=O ... > 100 µM
CN1CCN(Cc2ccc(C(=S)Nc3ccccc3)s2)CC1 ... > 100 µM
COc1ccc(N=C2C(=O)Nc3ccc(Br)cc32)cc1 ... 57.2 µM
c1csc(-c2cc(-c3ccsc3)cs2)c1 ... > 100 µM

Query block: For the compound `Nc1c(-c2ccccc2)c2ccc([N+](=O)[O-])cc2c(=O)n1-c1cccc(C(=O)O)c1` , what TGI is on record?
Result block: > 100 µM

Query block: For the compound `O=[N+]([O-])/C(=C/C=C/c1ccccc1)c1ccccc1` , what TGI is on record?
Result block: 8.93 µM

Query block: For the compound CCOC(=O)CCC(NC(=O)c1ccc(NCc2ccc3nc(OC)c(OC)nc3c2)c2ccccc12)C(=O)OCC (centres undefined) , what TGI is on record?
Result block: > 100 µM

Query block: For the compound `Cc1cc(C)c(C2=NO[C@@H]3[C@H]2C(=O)C=C2N(Cc4ccccc4)CCO[C@@]23O)c(C)c1` , what TGI is on record?
Result block: > 100 µM

Query block: For the compound N#Cc1cc2c(n(C3OC(CO)C(O)C(O)C3O)c1=S)CCC2 (centres undefined) , what TGI is on record?
Result block: > 100 µM

Query block: For the compound `O=C(O)c1cc2ccc(Cl)cc2c(O)c1C1=CCCCC1` , what TGI is on record?
Result block: > 100 µM

* * *

Test system: SK-OV-3 ovarian
test name: NCI tumour cell line growth inhibition, 48 h
Catalogue of compounds with associated TGI

Reference set (9 entries):
O=C([CH-]C(=O)c1ccccc1)c1ccccc1.[CH2-]C.[CH2-]C.[Tl+3] ... > 100 µM
C/C(=C\C(=O)O)C(=O)N(C)c1ccccc1I ... > 100 µM
O=C(NCCOC(=O)CCCCCCCCC(=O)OCCNC(=O)NC(=O)c1cn(Cc2ccccc2)c(=O)[nH]c1=O)NC(=O)c1cn(Cc2ccccc2)c(=O)[nH]c1=O ... > 100 µM
O=c1ccc(=O)c2c1c1[nH]c3ccccc3c1c1c(=O)c3ccccc3c(=O)c21 ... > 10 µM
CC1CC(C)(C)CC(OCCN2CCCCC2)(c2ccccc2)C1 (stereo not given) ... 28.3 µM
CC(CSc1nc2c(c(=N)n1-c1ccccc1)c(=S)n(-c1ccccc1)c(=S)n2-c1ccccc1)CN(C)C (stereo not given) ... 11.6 µM
NC(=O)C1C(=O)Oc2cccnc21 (stereo not given) ... > 100 µM
CCOC(=O)CSc1nc(-c2ccc(Cl)cc2)c(C#N)c(=O)[nH]1 ... > 100 µM
Nc1ncnc2c1ncn2CCCNO ... > 100 µM

Query block: For the compound `CCn1c(-c2cc3ccccc3cc2OC(C)=O)n[nH]c1=S` , what TGI is on record?
Result block: > 100 µM

* * *

System: PC-3 prostate
test name: NCI tumour cell line growth inhibition, 48 h
measure name: TGI

Reference set (4 entries):
C=C(c1ccc(C(=O)NCCCn2ccnc2)cc1)c1cc2c(cc1C)C(C)(C)CCC2(C)C ... > 51.7 µM
c1ccc2c(c1)ccc1cc3cc(NCCCCNc4ccc5nc6c(ccc7ccccc76)cc5c4)ccc3nc12 ... 2.67 µM
COc1ccc(C2=NOC3=c4ccccc4=CSC3=C2c2ccccc2)cc1 ... > 100 µM
Cc1cc(S(=O)(=O)NC2=NCc3c(F)cccc3N2)c(S)cc1Cl ... > 100 µM

Query block: For the compound `C/C(=C\C(=O)O)C(=O)N(C)c1ccccc1I` , what TGI is on record?
Result block: > 100 µM

* * *

System: SF-295 CNS
test name: NCI tumour cell line growth inhibition, 48 h
Catalogue of molecules with associated GI50

COC(=O)c1sc(=S)c2sc(C(=O)OC)c(C(=O)OC)c2c1C(=O)OC ... 39.3 µM

Query block: # returns recorded GI50 (system: SF-295 CNS) for `Oc1ccccc1/C=N/c1nc(-c2ccccc2)cs1`
Result block: > 100 µM

Query block: # returns recorded GI50 (system: SF-295 CNS) for `c1ccc(-c2nc3ccccc3[nH]2)c(OCCCCCOc2ccccc2-c2nc3ccccc3[nH]2)c1`
Result block: 15.3 µM

* * *

Test system: UACC-257 melanoma
test name: NCI tumour cell line growth inhibition, 48 h; in the data active = GI50 below about 0.43 µM; inactive = the rest
Select the matching outcome among Yes (active), No (inactive)

c1ccc(-c2nc3ccccc3[nH]2)c(OCCCCCOc2ccccc2-c2nc3ccccc3[nH]2)c1 ... No
CC(=O)O[C@H]1C(=O)[C@@]2(C)C([C@H](OC(=O)c3ccccc3)[C@]3(O)C[C@H](OC(=O)[C@H](O)[C@@H](NC(=O)c4ccc(Cl)cc4)c4ccccc4)C(C)=C1C3(C)C)C1(OC(C)=O)CO[C@@H]1C[C@@H]2O (stereo not given in full) ... Yes
COc1ccc(-c2nn(-c3cccc(Cl)c3)cc2-c2c(C#N)c(=O)n3[nH]c(-c4ccc(C)o4)nc3c2C#N)cc1 ... No
CC(C)(C)OC(=O)CC(S(=O)(=O)c1ccccc1)S(=O)(=O)c1ccccc1 ... No
Cc1nc2sc(C(=O)Nc3cccc(Cl)c3)c(N)c2cc1C(O)c1ccccc1 (stereo not given) ... No

Query block: Short answer needed: outcome of this test for Nc1c([N+](=O)[O-])ncn1C1OC(CO)C(O)C1O (stereo not given) ?
Result block: No

Query block: Short answer needed: outcome of this test for `Nc1nc2c([nH]1)c1[nH]c3ccccc3c1c1[nH]c3ccccc3c21` ?
Result block: No

Query block: Short answer needed: outcome of this test for `O=[N+]([O-])/C(=C/C=C/c1ccccc1)c1ccccc1` ?
Result block: No

Query block: Short answer needed: outcome of this test for `NCC[PH+](c1ccccc1)c1ccccc1.NCC[PH+](c1ccccc1)c1ccccc1.[Cl-].[Pt+4]` ?
Result block: No

Query block: Short answer needed: outcome of this test for `O=C(NCCNC1=CC(=O)c2nc3ccccc3c3ccnc1c23)c1cnccn1` ?
Result block: No

* * *

Test system: SR leukemia
test name: NCI tumour cell line growth inhibition, 48 h; in the data active means GI50 below about 0.43 µM; inactive means the rest
Select the matching outcome among Yes = active, No = inactive

CN1CCC(C(=O)Nc2n[nH]c3nnc(-c4ccccc4)cc23)CC1 ... No
Oc1ccccc1/C=N/c1nc(-c2ccccc2)cs1 ... No
COc1ccc(-c2nn(-c3cccc(Cl)c3)cc2-c2c(C#N)c(=O)n3[nH]c(-c4ccc(C)o4)nc3c2C#N)cc1 ... No

Query block: Short answer needed: outcome of this test for `CC(C)(C)OC(=O)CC(S(=O)(=O)c1ccccc1)S(=O)(=O)c1ccccc1` ?
Result block: No

Query block: Short answer needed: outcome of this test for CCCCCCC1CCCCN1C(c1ccccc1)C(O)c1ccccc1 (stereo not drawn) ?
Result block: No

Query block: Short answer needed: outcome of this test for CN(Cc1cnc2nc(N)nc(N)c2n1)c1c(Cl)cc(C(=O)NC(CCC(=O)O)C(=O)O)cc1Br (stereo not drawn) ?
Result block: Yes

Query block: Short answer needed: outcome of this test for `NCC[PH+](c1ccccc1)c1ccccc1.NCC[PH+](c1ccccc1)c1ccccc1.[Cl-].[Pt+4]` ?
Result block: No

Query block: Short answer needed: outcome of this test for `O=C([CH-]C(=O)c1ccccc1)c1ccccc1.[CH2-]C.[CH2-]C.[Tl+3]` ?
Result block: No
